Target: Human SARS-CoV-2_Wuhan S (SmT1) (SARS-CoV-2 (Wuhan), UniProt P0DTC2 14-1208)
Test: flow cytometry SVNA, VHH-Fc vs biotin-S binding to Vero E6 ACE2
measurement label: IC99 (nM)
# unit: nM | format: bare number

# binder, IC99 / nM
data = [
    ("NRCoV2-1d VHH-Fc (Fc fusion, bivalent VHH-Fc) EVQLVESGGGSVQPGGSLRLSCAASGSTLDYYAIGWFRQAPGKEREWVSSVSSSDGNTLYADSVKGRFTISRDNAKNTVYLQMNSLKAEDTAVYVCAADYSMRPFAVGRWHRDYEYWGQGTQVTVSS", 42),
    ("NRCoV2-18 VHH-Fc (Fc fusion, bivalent VHH-Fc) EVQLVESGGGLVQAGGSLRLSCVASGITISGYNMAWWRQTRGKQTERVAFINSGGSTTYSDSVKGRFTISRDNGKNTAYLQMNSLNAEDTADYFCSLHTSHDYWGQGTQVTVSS", 680),
    ("NRCoV2-20 VHH-Fc (Fc fusion, bivalent VHH-Fc) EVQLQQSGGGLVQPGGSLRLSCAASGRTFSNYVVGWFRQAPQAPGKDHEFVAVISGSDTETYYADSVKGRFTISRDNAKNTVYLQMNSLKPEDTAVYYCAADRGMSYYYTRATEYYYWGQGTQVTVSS", 70.3),
]

IC99 reported for this binder NRCoV2-05 VHH-Fc (Fc fusion, bivalent VHH-Fc) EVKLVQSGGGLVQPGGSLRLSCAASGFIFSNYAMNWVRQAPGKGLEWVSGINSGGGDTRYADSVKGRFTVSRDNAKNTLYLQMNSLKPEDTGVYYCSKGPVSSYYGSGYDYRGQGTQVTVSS : 37
